Below are pIC50 values for human LTA4 hydrolase (Homo sapiens, UniProt P09960) collected from several publications.
Bear in mind: pIC50 is minus log10 of a mol/L concentration; give just that figure.

Query: Note down pIC50 recorded for `CC(C)(O)C(=O)N1CCN(Cc2ccc3cc(Oc4ccc(-c5ccn[nH]5)cn4)ccc3n2)CC1`
Result: 8.92

Query: Specify measured pIC50 for `c1cc(-c2ccc(Oc3ccc4nc(OCCN5CCOCC5)ccc4c3)nc2)[nH]n1` .
Result: 7.60

Query: Provide pIC50 value for the following compound: CNC(=O)C1CCN(CC2Cc3ccc(Oc4ccc(-c5ccn[nH]5)cc4)cc3O2)CC1 (centres unmarked)
Result: 9.24

Query: Query pIC50 for CC(=O)NC1CCN(CC2Cc3ccc(Oc4ccc(-c5ccn[nH]5)cn4)cc3O2)CC1 (centres unmarked)
Result: 9.54

Query: Determine from records and report pIC50 for C[C@H](O)C(=O)N1CCN(CCC2COc3cc(Oc4ccc(-c5ccn[nH]5)cn4)ccc32)CC1 (some centres unmarked)
Result: 8.89

Query: Supply measured pIC50 of `c1cc(-c2ccc(Oc3ccc4nc(CN5CCOCC5)cn4c3)cc2)[nH]n1` in your reply.
Result: 9.24

Query: Determine its reported pIC50: c1cc(-c2ccc(Oc3ccc4[nH]c(CNC5CCCOC5)nc4c3)cc2)[nH]n1 (centres unmarked)
Result: 9.68

Query: Tell us which pIC50 value is on record for `NC(=O)C1CCN(Cc2ccc3cc(Oc4ncc(-c5ccn[nH]5)cn4)ccc3c2)CC1`
Result: 8.85

Query: Return reported pIC50. Input compound: F[C@H]1CCN(Cc2ccc(C3COc4ccccc4O3)cc2)C1 (some centres unmarked)
Result: 8.52

Query: Indicate its recorded pIC50; the compound in question is `CC(=O)NC1CCN(CCc2coc3cc(Oc4ccc(-c5ccn[nH]5)cn4)ccc23)CC1`
Result: 9.46

Query: State its pIC50 for this compound: `C[C@@H]1CN(C(=O)CO)CCN1Cc1ccc2cc(Oc3ccc(-c4ccn[nH]4)cn3)ccc2n1`
Result: 9.12

Query: In one line, give reported pIC50 of the entry `CC(=O)N1CCN(c2ccc3cc(Oc4ccc(-c5ccn[nH]5)cn4)ccc3n2)CC1` .
Result: 8.77

Query: Kindly indicate its recorded pIC50. Item: `CC(=O)N1CCN(CCn2ccc3cc(Oc4ccc(-c5ccn[nH]5)cn4)ccc32)CC1`
Result: 8.64

Query: State, in one line, measured pIC50 of `c1cnc(COc2ccc(Oc3ccc(-c4ccn[nH]4)cc3)cc2)cn1`
Result: 8.96

Query: Give me measured pIC50, please, for this compound: `O=C(c1cn2ccc(Oc3ccc(-c4ccn[nH]4)cc3)cc2n1)N1CCOCC1`
Result: 8.00

Query: Please report pIC50 for the following compound: `O=C([C@@H]1CCC[C@@H]1O)N1CCN(Cc2ccc3cc(Oc4ccc(-c5ccn[nH]5)cn4)ccc3n2)CC1`
Result: 8.21

Query: Look up and state reported pIC50 for `c1ccn2cc(COc3ccc(Oc4ccc(-c5ccn[nH]5)cc4)cc3)nc2c1`
Result: 8.43

* * *

IC50 for UniProt P09960, merged from several publications.
Lab book: enter the figure in nM, no units written.

Query: # assay system UniProt P09960: give IC50 of c1cc(-c2ccc(Oc3ccc(OCCC4CCCCO4)cc3)cc2)[nH]n1 (centres unmarked)
Result: 26.9

Query: Fill in IC50 for `CN(Cc1cnc2cc(Oc3ccc(-c4ccn[nH]4)cn3)ccc2c1)[C@@H]1CCN(C(=O)CO)C1` tested with UniProt P09960.
Result: 0.88

Query: Specify IC50 for c1ccc2c(c1)OCC(c1ccc(CN3CCn4cnnc4C3)cc1)O2 (centres unmarked) , system UniProt P09960.
Result: 1.14

Query: Name the recorded IC50 of `CC(=O)NC1CCN(Cc2ccc3cc(Oc4ncc(-c5ccn[nH]5)cn4)ccc3c2)CC1` , assay system UniProt P09960.
Result: 1.8

Query: Fill in: IC50 on UniProt P09960, entry `c1cc(-c2ccc(Oc3ccc4nc(CN5CCCCC5)ccc4c3)nc2)[nH]n1`
Result: 0.48

Query: Please look at `O=C1[C@@H](O)CCN1C1CCN(Cc2coc3cc(Oc4ccc(-c5ccn[nH]5)cn4)ccc23)CC1` and tell me its recorded IC50 on UniProt P09960.
Result: 0.36

Query: Under UniProt P09960, report IC50 for `CN(Cc1nc2cc(Oc3ccc(-c4ccn[nH]4)cc3)ccc2[nH]1)CC1CCOCC1`
Result: 0.19

Query: System UniProt P09960. Read-out IC50. Item `O=C1OCCN1Cc1cn2cc(Oc3ccc(-c4ccn[nH]4)cc3)ccc2n1` . Report value.
Result: 1.7

* * *

pIC50: −log10 of the molar value.
Several publications report pIC50 on human LTA4 hydrolase (Homo sapiens, UniProt P09960); those values are gathered here.
Sequence (P09960 whole entry): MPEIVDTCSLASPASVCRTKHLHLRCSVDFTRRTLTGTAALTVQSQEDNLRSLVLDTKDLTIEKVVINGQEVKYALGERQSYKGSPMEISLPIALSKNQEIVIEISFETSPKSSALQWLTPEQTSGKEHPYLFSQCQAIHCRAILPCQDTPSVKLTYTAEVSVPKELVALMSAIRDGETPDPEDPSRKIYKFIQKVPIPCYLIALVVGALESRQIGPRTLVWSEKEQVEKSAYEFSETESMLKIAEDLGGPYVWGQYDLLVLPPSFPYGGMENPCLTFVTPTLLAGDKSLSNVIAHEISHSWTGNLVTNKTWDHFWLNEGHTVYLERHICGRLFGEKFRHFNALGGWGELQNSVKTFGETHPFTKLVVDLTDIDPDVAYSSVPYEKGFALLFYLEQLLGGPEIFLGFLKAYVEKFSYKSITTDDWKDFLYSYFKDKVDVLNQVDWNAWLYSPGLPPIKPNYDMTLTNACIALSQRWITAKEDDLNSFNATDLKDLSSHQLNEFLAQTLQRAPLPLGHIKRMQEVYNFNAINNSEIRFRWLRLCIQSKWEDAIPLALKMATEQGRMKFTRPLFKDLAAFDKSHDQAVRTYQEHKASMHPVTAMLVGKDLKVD
# cutoff 9 applies to pIC50; >= gives t, < gives f

Query: Quick check, pIC50 >= 9? `CC[C@@H](C)NCc1nc2cc(Oc3ccc(-c4ccn[nH]4)cc3)ccc2[nH]1`
Result: t

Query: Entry `O=C1CC[C@H](Oc2ccc(Oc3ccc(-c4ccn[nH]4)cc3)cn2)CN1` : is its pIC50 no less than 9?
Result: f

Query: State whether the measured pIC50 reaches 9, counting equality as reaching it, for `FC(F)(F)CN1CCN(Cc2nc3cc(Oc4ccc(-c5ccn[nH]5)cc4)ccc3[nH]2)CC1`
Result: t

Query: Does the reported pIC50 for `c1cc(-c2ccc(Oc3ccc4cc(CN5CCCC5)ccc4c3)nc2)[nH]n1` fall at or above the 9 mark?
Result: t

Query: Reported pIC50 at or above 9? `c1cc(-c2ccc(Oc3ccc4c(CN5CCOCC5)n[nH]c4c3)nc2)[nH]n1`
Result: f

Query: Answer whether pIC50 of `C[C@@H](Oc1ccc(Oc2ccc(-c3ccn[nH]3)cc2)cc1)c1ccccn1` is greater than or equal to 9.
Result: f

Query: Check if pIC50 >= 9 (inclusive). Item: `CN(C(=O)CO)C1CCN(Cc2cnc3cc(Oc4ccc(-c5ccn[nH]5)cn4)ccc3c2)CC1`
Result: f

Query: Is it the case that `O=C(N1CCN(Cc2nc3cc(Oc4ccc(-c5ccn[nH]5)cc4)ccc3[nH]2)CC1)C(F)(F)F` has pIC50 reaching or exceeding 9?
Result: t

Query: Determine whether this compound has pIC50 no lower than 9: `CN1CCC[C@H]1Cc1nc2cc(Oc3ccc(-c4ccn[nH]4)cc3)ccc2[nH]1`
Result: t

Query: Reported pIC50 reaches at least 9 for `CC(=O)N1CCN(CCn2ncc3cc(Oc4ccc(-c5ccn[nH]5)cc4)ccc32)CC1` ?
Result: t

Query: Assess whether reported pIC50 for O=C1NC(COc2ccc(Oc3ccc(-c4ccn[nH]4)cc3)cc2)CO1 (centres unmarked) sits at 9 or higher.
Result: t

Query: For this compound, is measured pIC50 9 or higher? `CC(=O)N1C[C@H]2C[C@@H]1CN2Cc1ccc2cc(Oc3ccc(-c4ccn[nH]4)cn3)ccc2n1`
Result: t

* * *

Please find below pIC50 measurements for human LTA4 hydrolase (Homo sapiens, UniProt P09960), combined from several publications.
pIC50 here: minus log base 10 of the concentration, concentration in moles per litre.

Query: Report value: pIC50, system: human LTA4 hydrolase (Homo sapiens, UniProt P09960), molecule: `CC(=O)N1C[C@@H]2C[C@H]1CN2Cc1ccc2cc(Oc3ccc(-c4cc[nH]n4)cn3)ccc2n1`
Result: 9.03

Query: Write down the reported pIC50 (system: human LTA4 hydrolase (Homo sapiens, UniProt P09960)) of `C[C@H](Oc1ccc(Oc2ccc(-c3ccn[nH]3)cc2)cc1)c1ccccn1`
Result: 7.36

Query: Name the recorded pIC50 of `O=C1CCCN1C1CCN(C[C@@H]2Cc3ccc(Oc4ccc(-c5ccn[nH]5)cn4)cc3O2)CC1` , assay system human LTA4 hydrolase (Homo sapiens, UniProt P09960).
Result: 9.02

Query: Enter pIC50 (test system human LTA4 hydrolase (Homo sapiens, UniProt P09960)) for `CO[C@H](C)C(=O)N1CCN(CCc2coc3cc(Oc4ccc(-c5ccn[nH]5)cn4)ccc23)CC1`
Result: 9.04

* * *

pIC50: −log10 of the molar value.
Below, pIC50 values reported for human LTA4 hydrolase (Homo sapiens) across several publications.
Rule: pIC50 of 9 or more gives label 1; anything lower gives label 0.

Query: // inclusive: pIC50 at least 9? input: NC(=O)C1CCN(CC2CCc3ccc(Oc4ccc(-c5ccn[nH]5)cn4)cc3O2)CC1 (centres unmarked)
Result: label 0

Query: Please indicate if the recorded pIC50 for `N#CC1(C(=O)N2CCN(Cc3ccc4cc(Oc5ccc(-c6ccn[nH]6)cn5)ccc4n3)CC2)CCC1` meets or exceeds 9.
Result: label 0

Query: Is reported pIC50 greater than or equal to 9 here: `O=C1N[C@H](COc2ccc(Oc3ccc(-c4ccn[nH]4)cc3)cc2)CO1`
Result: label 1

Query: Check if pIC50 >= 9 (inclusive). Item: `N#CC1(C(=O)N2CCN(Cc3ccc4cc(Oc5ccc(-c6ccn[nH]6)cn5)ccc4n3)CC2)CCOCC1`
Result: label 0

Query: Is reported pIC50 greater than or equal to 9 here: `CCCOCC(=O)N1CCN(Cc2ccc3cc(Oc4ccc(-c5ccn[nH]5)cn4)ccc3n2)CC1`
Result: label 0

Query: Check the entry OCC1CCCCN1Cc1nc2cc(Oc3ccc(-c4ccn[nH]4)cc3)ccc2[nH]1 (centres unmarked) : does pIC50 equal or exceed 9?
Result: label 1
